target: MST1R (human); assay: radiometric filter-binding kinase assay, Kinase HotSpot; details: compound 0.5 µM; ATP 10 µM
Parameter residual activity: see the listing below.
Quick reminder: number only, in %, skip the unit.

Below, each entry is followed by its recorded residual activity result.
Dear colleague, I am looking for the recorded residual activity of the following molecule: CCn1cnc2c(Nc3cccc(Cl)c3)nc(N[C@@H]3CCCC[C@@H]3N)nc21
99.6

Dear colleague, I am looking for the recorded residual activity of the following molecule: Cn1cnc2cc3c(Nc4cccc(Br)c4)ncnc3cc21
96.5

Dear colleague, I am looking for the recorded residual activity of the following molecule: O=C1NC(=O)C(c2c[nH]c3ccccc23)=C1c1c[nH]c2ccccc12
93.1

Dear colleague, I am looking for the recorded residual activity of the following molecule: O=C1Cc2c([nH]c3ccc(Br)cc23)-c2ccccc2N1
93.6

Dear colleague, I am looking for the recorded residual activity of the following molecule: CC(C)[C@H](CO)Nc1nc(Nc2cc(N)cc(Cl)c2)c2ncn(C(C)C)c2n1
122

Dear colleague, I am looking for the recorded residual activity of the following molecule: Cn1nc2c3c(cccc31)C(=O)c1ccccc1-2
96.7

Dear colleague, I am looking for the recorded residual activity of the following molecule: COc1cc2ncnc(N3CCN(C(=O)Nc4ccc(Oc5ccccc5)cc4)CC3)c2cc1OC
90.3

Dear colleague, I am looking for the recorded residual activity of the following molecule: Cc1nc2cc3nc(-c4cccs4)cnc3cc2n1C
107

More entries:
Dear colleague, I am looking for the recorded residual activity of the following molecule: Nc1nnc2[nH]c3ccccc3nc1-2
105

Dear colleague, I am looking for the recorded residual activity of the following molecule: COc1ccc(CNC(=O)Nc2ncc([N+](=O)[O-])s2)cc1
98.4

Dear colleague, I am looking for the recorded residual activity of the following molecule: O=C1NC(=O)/C(=C\c2ccc3nccnc3c2)S1
97.8

====

Parameter residual activity: see the listing below.
target: JAK1 JH1 catalytic (human); assay: radiometric filter-binding kinase assay, Kinase HotSpot; settings: compound 0.5 µM; ATP 10 µM
Quick reminder: number only, in %, skip the unit.

Below, each entry is followed by its recorded residual activity result.
Dear colleague, I am looking for the recorded residual activity of the following compound: O=C1Nc2ccccc2/C1=C1/Nc2ccccc2/C1=N\OCCC(O)CO (centres undefined)
25.9

Dear colleague, I am looking for the recorded residual activity of the following compound: CCn1cnc2c(Nc3cccc(Cl)c3)nc(N[C@@H]3CCCC[C@@H]3N)nc21
98.6

Dear colleague, I am looking for the recorded residual activity of the following compound: CC(C)c1nn(-c2c(Cl)cccc2Cl)c2nc(Cc3ccc(OCCO)cc3)nc(O)c12
101

More entries:
Dear colleague, I am looking for the recorded residual activity of the following compound: O=C(Nc1cccc(Nc2cc(Nc3cccc(C(F)(F)F)c3)ncn2)c1)C1CC1
103

====

molecular target: CDK2 CCNE1 (human) (UniProt P24941+P24864); assay: radiometric filter-binding kinase assay, Kinase HotSpot; settings: compound 0.5 µM; ATP 10 µM
Sequence (P24864 whole entry, looked up, other chains not shown): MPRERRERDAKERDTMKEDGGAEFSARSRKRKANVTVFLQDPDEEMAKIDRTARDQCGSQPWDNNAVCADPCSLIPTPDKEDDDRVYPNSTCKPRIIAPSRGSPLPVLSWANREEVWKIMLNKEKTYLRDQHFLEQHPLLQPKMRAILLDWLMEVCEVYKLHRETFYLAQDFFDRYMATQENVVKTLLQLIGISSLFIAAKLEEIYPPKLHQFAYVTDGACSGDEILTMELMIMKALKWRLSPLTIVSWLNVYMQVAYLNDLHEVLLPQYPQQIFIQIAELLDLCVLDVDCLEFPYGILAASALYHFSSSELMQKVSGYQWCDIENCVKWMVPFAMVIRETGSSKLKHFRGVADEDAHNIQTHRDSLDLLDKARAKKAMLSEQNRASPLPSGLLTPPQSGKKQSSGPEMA
outcome-measure: residual activity

Below, each entry is followed by its recorded residual activity result.
Dear colleague, I am looking for the recorded residual activity of the following compound: CCN(CC)CCCCN1c2ccccc2Oc2ccc(Cl)cc21
89.4%

Dear colleague, I am looking for the recorded residual activity of the following compound: O=C(CCCc1ccc(-c2ccccc2F)cc1)Nc1ccc(O)cc1
91.9%

More entries:
Dear colleague, I am looking for the recorded residual activity of the following compound: Cn1cnc2cc3c(Nc4cccc(Br)c4)ncnc3cc21
78.2%

Dear colleague, I am looking for the recorded residual activity of the following compound: O=C1Cc2c([nH]c3ccc(Br)cc23)-c2ccccc2N1
51.9%

Dear colleague, I am looking for the recorded residual activity of the following compound: O=C1NC(=O)/C(=C\c2ccc3nccnc3c2)S1
91.8%

Dear colleague, I am looking for the recorded residual activity of the following compound: CC(C)c1nn(-c2c(Cl)cccc2Cl)c2nc(Cc3ccc(OCCO)cc3)nc(O)c12
8.6%

Dear colleague, I am looking for the recorded residual activity of the following compound: O=C1Nc2ccccc2/C1=C1\Nc2ccccc2\C1=N/O
31.3%

Dear colleague, I am looking for the recorded residual activity of the following compound: O=C1c2ccccc2-[n+]2ccc3c([nH]c4ccccc43)c21
80.3%

Dear colleague, I am looking for the recorded residual activity of the following compound: CN(C)C[C@H]1CCn2c(c(C3=C(c4cn(C)c5ccccc45)C(=O)NC3=O)c3ccccc32)C1
64.4%

Dear colleague, I am looking for the recorded residual activity of the following compound: COc1cc2ncnc(N3CCN(C(=O)Nc4ccc(Oc5ccccc5)cc4)CC3)c2cc1OC
92.1%

Dear colleague, I am looking for the recorded residual activity of the following compound: Cn1sc(=O)n(Cc2ccccc2)c1=O
95.1%

====

target: CAMK2B (human) (UniProt Q13554); assay: radiometric filter-binding kinase assay, Kinase HotSpot; conditions: compound 0.5 µM; ATP 10 µM
Sequence (Q13554 whole entry, looked up): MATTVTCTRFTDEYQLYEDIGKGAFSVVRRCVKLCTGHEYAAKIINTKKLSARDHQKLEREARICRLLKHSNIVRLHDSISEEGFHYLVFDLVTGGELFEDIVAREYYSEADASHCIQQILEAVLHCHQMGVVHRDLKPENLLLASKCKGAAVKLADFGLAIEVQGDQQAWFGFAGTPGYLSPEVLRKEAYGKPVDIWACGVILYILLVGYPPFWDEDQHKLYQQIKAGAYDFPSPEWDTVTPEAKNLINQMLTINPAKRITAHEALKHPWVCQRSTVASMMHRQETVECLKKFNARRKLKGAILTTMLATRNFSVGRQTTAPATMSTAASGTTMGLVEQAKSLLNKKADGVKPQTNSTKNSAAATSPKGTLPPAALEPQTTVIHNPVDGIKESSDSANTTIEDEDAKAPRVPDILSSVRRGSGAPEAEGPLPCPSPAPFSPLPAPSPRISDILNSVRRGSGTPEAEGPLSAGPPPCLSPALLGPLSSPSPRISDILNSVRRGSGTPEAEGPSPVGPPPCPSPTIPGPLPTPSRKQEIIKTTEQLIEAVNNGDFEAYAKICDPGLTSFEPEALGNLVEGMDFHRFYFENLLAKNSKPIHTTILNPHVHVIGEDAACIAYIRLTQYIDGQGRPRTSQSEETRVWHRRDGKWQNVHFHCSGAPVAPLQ
outcome-measure: residual activity
Dear colleague, please send the value followed by its unit.

Form field: residual activity recorded for O=C1NC(=O)C(c2cn(CCCO)c3ncccc23)=C1c1cnccn1 with CAMK2B (human) (UniProt Q13554) (enter value)
97.6%

More entries:
Form field: residual activity recorded for CCN(CC)CCCCN1c2ccccc2Oc2ccc(Cl)cc21 with CAMK2B (human) (UniProt Q13554) (enter value)
107%

Form field: residual activity recorded for COc1ccc(OC)c2c(=S)c3ccccc3[nH]c12 with CAMK2B (human) (UniProt Q13554) (enter value)
104%

Form field: residual activity recorded for O=C1Nc2ccccc2/C1=C1/Nc2ccccc2/C1=N\OCCC(O)CO (stereo unspecified) with CAMK2B (human) (UniProt Q13554) (enter value)
57.9%

Form field: residual activity recorded for O=C(Nc1cccc(Nc2cc(Nc3cccc(C(F)(F)F)c3)ncn2)c1)C1CC1 with CAMK2B (human) (UniProt Q13554) (enter value)
105%

Form field: residual activity recorded for O=C1NC(=O)/C(=C\c2ccc3nccnc3c2)S1 with CAMK2B (human) (UniProt Q13554) (enter value)
89.3%

Form field: residual activity recorded for COc1cc2ncnc(N3CCN(C(=O)Nc4ccc(Oc5ccccc5)cc4)CC3)c2cc1OC with CAMK2B (human) (UniProt Q13554) (enter value)
96.3%

Form field: residual activity recorded for COc1cc2ncc(-c3ccccc3)nc2cc1OC with CAMK2B (human) (UniProt Q13554) (enter value)
93.3%

Form field: residual activity recorded for O=C(CCCc1ccc(-c2ccccc2F)cc1)Nc1ccc(O)cc1 with CAMK2B (human) (UniProt Q13554) (enter value)
99.9%

Form field: residual activity recorded for CN(C)C[C@H]1CCn2c(c(C3=C(c4cn(C)c5ccccc45)C(=O)NC3=O)c3ccccc32)C1 with CAMK2B (human) (UniProt Q13554) (enter value)
96.9%

Form field: residual activity recorded for Cn1cnc2cc3c(Nc4cccc(Br)c4)ncnc3cc21 with CAMK2B (human) (UniProt Q13554) (enter value)
102%

====

target: TXK (human) (UniProt P42681); experiment: radiometric filter-binding kinase assay, Kinase HotSpot; settings: compound 0.5 µM; ATP 10 µM
Sequence (P42681 whole entry, looked up): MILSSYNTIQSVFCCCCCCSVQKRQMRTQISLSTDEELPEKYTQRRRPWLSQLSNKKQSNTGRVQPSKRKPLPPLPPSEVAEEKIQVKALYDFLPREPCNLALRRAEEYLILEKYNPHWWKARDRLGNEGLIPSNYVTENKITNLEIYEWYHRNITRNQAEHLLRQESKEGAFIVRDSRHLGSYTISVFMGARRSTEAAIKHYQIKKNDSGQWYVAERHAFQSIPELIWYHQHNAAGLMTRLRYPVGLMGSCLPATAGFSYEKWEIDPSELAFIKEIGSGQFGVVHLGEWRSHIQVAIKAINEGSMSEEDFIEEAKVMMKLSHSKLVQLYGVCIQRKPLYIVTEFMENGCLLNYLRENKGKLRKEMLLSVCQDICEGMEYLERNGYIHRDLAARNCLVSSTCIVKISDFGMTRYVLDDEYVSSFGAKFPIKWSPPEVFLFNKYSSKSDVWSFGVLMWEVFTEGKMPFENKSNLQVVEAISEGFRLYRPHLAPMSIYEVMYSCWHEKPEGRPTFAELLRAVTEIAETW
outcome-measure: residual activity (%)
Quick reminder: number only, in %, skip the unit.

Below, each entry is followed by its recorded residual activity result.
Dear colleague, I am looking for the recorded residual activity of the following molecule: COc1cc2ncnc(N3CCN(C(=O)Nc4ccc(Oc5ccccc5)cc4)CC3)c2cc1OC
99.3

Dear colleague, I am looking for the recorded residual activity of the following molecule: Oc1ccc(Nc2nc(-c3ccc(Cl)cc3)cs2)cc1
100

Dear colleague, I am looking for the recorded residual activity of the following molecule: O=C1NC(=O)/C(=C\c2ccc3nccnc3c2)S1
96.8

More entries:
Dear colleague, I am looking for the recorded residual activity of the following molecule: CC(C)[C@H](CO)Nc1nc(Nc2cc(N)cc(Cl)c2)c2ncn(C(C)C)c2n1
42.5

====

target: PTK2 (human) (UniProt Q05397); test: radiometric filter-binding kinase assay, Kinase HotSpot; conditions: compound 0.5 µM; ATP 10 µM
Sequence (Q05397 whole entry, looked up): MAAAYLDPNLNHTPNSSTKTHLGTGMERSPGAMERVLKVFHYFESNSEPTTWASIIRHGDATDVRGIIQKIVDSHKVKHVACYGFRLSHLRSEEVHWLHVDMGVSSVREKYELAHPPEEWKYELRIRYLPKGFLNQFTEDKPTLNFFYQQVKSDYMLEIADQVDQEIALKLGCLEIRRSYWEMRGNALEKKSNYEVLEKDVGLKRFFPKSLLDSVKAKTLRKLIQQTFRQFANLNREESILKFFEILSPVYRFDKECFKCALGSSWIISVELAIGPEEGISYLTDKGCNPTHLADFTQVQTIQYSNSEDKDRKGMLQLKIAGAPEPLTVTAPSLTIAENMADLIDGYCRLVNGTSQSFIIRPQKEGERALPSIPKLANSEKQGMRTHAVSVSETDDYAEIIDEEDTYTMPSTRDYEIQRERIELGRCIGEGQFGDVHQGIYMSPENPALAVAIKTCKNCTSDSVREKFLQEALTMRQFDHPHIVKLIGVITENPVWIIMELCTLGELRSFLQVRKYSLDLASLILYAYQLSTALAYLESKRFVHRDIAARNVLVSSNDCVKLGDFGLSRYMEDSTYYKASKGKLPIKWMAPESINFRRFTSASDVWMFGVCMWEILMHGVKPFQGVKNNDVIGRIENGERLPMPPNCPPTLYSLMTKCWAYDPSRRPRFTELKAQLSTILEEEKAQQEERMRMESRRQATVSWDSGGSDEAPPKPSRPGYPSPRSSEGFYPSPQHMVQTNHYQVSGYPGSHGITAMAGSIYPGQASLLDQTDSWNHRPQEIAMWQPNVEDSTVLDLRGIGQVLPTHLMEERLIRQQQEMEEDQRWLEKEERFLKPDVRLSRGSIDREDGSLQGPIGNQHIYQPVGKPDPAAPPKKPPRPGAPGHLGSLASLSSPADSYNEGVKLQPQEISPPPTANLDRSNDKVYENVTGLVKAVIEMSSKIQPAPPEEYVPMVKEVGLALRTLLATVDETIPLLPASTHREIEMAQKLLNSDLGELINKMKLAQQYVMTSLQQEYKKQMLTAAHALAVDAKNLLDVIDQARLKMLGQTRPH
outcome-measure: residual activity (%)
Quick reminder: number only, in %, skip the unit.

Below, each entry is followed by its recorded residual activity result.
Dear colleague, I am looking for the recorded residual activity of the following compound: Oc1ccc(Nc2nc(-c3ccc(Cl)cc3)cs2)cc1
99.4

Dear colleague, I am looking for the recorded residual activity of the following compound: O=C1NC(=O)/C(=C\c2ccc3nccnc3c2)S1
96.5

Dear colleague, I am looking for the recorded residual activity of the following compound: COc1cc2ncc(-c3ccccc3)nc2cc1OC
100

More entries:
Dear colleague, I am looking for the recorded residual activity of the following compound: O=C1NC(=O)C(c2cn(CCCO)c3ncccc23)=C1c1cnccn1
101

Dear colleague, I am looking for the recorded residual activity of the following compound: Cc1nc2cc3nc(-c4cccs4)cnc3cc2n1C
117

Dear colleague, I am looking for the recorded residual activity of the following compound: O=C(CCCc1ccc(-c2ccccc2F)cc1)Nc1ccc(O)cc1
102

Dear colleague, I am looking for the recorded residual activity of the following compound: CN(C)C[C@H]1CCn2c(c(C3=C(c4cn(C)c5ccccc45)C(=O)NC3=O)c3ccccc32)C1
95.9
